meta.source: patent US20220062240A1

target: CLK2 (Homo sapiens); construct: purchased Thermo Fisher (Life Technologies), Z'-LYTE Kinase Assay Kits; experiment: CLK2 kinase activity assay (Z-lyte, Ser/Thr 6 peptide); format: biochemical; conditions: recombinant CLK2 kinase, ATP 60 μM; read-out: EC50
pEC50: −log10 of the molar value.
experimental endpoint: pEC50

Look over these answered cases.
Cc1ccc(-c2cncc3[nH]c(-c4n[nH]c5ccc(-c6cncc(N)c6)nc45)nc23)s1 [Compound 7]: 9.00
CN(C)C1CN(c2cc(C(=O)Nc3cc4cc(-c5cnn(C)c5)ccc4cn3)ccn2)C1 [Compound 70]: 8.80

I = O=C(Nc1cncc(-c2ccc3[nH]nc(-c4cc5cnccc5[nH]4)c3c2)c1)C1CCCCC1 [Compound 47]
II = O=C(Nc1c[nH]nc1-c1nc2c(-c3cccc(F)c3)cncc2[nH]1)C1CCNCC1 [Compound 89]
Which item exceeds the other in pEC50, I or II ? # reply format: chosen label
I
(I: 8.89, II: 8.66)

###

tested on: MCF7; test: CellTiter-Glo Viability Assay, breast cancer; type: cell-based; settings: Homo sapiens, 96 h; MCF7, breast cancer, four days; read-out: EC50
experimental endpoint: EC50 (µM)

Recorded EC50, per entry:
CN1CCN(c2cc(C(=O)Nc3cc4cc(-c5cn(C)nn5)ccc4cn3)ccn2)CC1 [Compound 14]: 0.725
CC(C)CC(=O)Nc1cncc(-c2ccc3[nH]nc(-c4cc5c(N6CCCCC6)cncc5[nH]4)c3c2)c1 [Compound 50]: 3.52

I = Cc1ncc(C(=O)Nc2cc3nc(-c4cnc(C)n4C)ccc3cn2)s1 [Compound 82]
II = CN1CCN(c2cc(C(=O)Nc3cc4cc(-c5nnc(N(C)C)s5)ccc4cn3)ccn2)CC1 [Compound 84]
III = CN1CCN(c2cc(Nc3ncc4c(-c5ccc6ncccc6c5)c[nH]c4n3)ccn2)CC1 [Compound 67]
Thanks in advance: please rank these 3 entries by EC50, highest to lowest. Record the ranking as a list of labels in the requested order.
III, II, I
(III: 3.7 µM, II: 2.56 µM, I: 0.942 µM)

###

target: CLK2 (Homo sapiens, UniProt P49760); construct: purchased Thermo Fisher (Life Technologies), Z'-LYTE Kinase Assay Kits; test: CLK2 kinase activity assay (Z-lyte, Ser/Thr 6 peptide); assay type: biochemical; conditions: recombinant CLK2 kinase, ATP 60 μM; read-out: EC50
Sequence (P49760 whole entry): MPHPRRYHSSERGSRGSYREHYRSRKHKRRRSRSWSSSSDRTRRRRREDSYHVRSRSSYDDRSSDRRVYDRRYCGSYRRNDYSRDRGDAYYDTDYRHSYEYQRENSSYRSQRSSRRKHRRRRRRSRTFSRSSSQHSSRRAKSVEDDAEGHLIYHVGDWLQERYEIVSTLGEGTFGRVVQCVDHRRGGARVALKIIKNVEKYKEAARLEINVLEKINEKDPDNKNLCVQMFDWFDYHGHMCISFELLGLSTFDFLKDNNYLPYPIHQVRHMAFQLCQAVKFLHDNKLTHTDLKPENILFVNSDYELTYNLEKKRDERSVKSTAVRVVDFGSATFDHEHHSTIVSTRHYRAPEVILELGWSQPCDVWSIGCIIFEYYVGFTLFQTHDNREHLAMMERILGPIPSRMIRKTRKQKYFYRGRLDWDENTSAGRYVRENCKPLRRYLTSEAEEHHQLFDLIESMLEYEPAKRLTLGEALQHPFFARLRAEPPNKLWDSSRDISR
experimental endpoint: EC50 (nM)

Cc1cc2ncc(-c3ccc4cnc(NC(=O)c5ccnc(N6CCN(C)CC6)c5)cc4c3)cc2[nH]1: 4.9
Cc1ncc(-c2ccc3[nH]nc(-c4nc5c(-c6cc(F)cc(NCCN(C)C)c6)ccnc5[nH]4)c3n2)n1C: 1

I = Fc1cccc(-c2cncc3[nH]c(-c4n[nH]cc4/C=C/c4cccnc4)nc23)c1
II = CN1CCN(c2cc(C(=O)Nc3cc4cc(-c5nnc(N(C)C)s5)ccc4cn3)ccn2)CC1
Could you tell me which of these two has the smaller EC50 figure? First: I Second: II To answer, give the label that identifies your chosen option.
II

###

molecular target: MINK1 (Homo sapiens)
Sequence (Q8N4C8 whole entry): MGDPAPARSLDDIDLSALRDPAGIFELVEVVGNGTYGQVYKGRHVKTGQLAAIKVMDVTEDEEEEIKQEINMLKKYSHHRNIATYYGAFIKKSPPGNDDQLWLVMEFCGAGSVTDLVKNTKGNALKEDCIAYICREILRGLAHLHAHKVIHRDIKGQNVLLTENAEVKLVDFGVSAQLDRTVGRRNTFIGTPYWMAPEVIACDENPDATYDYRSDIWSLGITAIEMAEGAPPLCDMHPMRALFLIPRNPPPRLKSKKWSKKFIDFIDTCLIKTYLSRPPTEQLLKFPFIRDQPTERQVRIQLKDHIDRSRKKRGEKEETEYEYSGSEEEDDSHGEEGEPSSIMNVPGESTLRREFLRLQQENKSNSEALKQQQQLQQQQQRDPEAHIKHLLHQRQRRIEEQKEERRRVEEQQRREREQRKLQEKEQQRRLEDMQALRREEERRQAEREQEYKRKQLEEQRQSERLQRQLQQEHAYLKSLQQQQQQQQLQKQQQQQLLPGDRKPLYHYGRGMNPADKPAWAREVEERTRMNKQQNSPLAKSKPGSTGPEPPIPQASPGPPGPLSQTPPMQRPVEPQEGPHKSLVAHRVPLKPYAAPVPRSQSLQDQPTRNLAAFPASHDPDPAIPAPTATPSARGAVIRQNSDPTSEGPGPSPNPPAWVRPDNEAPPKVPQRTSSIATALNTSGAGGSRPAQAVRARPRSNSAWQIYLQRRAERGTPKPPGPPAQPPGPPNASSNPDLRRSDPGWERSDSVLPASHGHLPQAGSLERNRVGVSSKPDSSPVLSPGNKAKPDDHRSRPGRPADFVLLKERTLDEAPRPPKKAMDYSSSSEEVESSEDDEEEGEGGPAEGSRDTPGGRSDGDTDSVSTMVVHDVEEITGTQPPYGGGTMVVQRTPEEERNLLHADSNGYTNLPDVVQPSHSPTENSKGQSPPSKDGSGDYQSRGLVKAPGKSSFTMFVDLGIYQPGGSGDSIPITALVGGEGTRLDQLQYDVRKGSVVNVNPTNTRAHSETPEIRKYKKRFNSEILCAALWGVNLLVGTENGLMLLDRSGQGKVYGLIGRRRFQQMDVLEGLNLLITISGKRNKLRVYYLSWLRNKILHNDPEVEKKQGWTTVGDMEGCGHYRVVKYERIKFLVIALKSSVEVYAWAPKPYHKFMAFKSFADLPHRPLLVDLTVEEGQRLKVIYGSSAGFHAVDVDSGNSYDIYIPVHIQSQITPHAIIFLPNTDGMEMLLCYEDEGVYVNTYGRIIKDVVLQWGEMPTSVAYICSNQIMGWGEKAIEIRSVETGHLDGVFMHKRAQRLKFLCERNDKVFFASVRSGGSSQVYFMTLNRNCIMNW
experimental endpoint: IC50 (nM)
Your answer should be a plain number; it is taken to be in nM.

Using the record for CN1CCN(c2cc(C(=O)Nc3cc4cc(-c5cnn(C)c5)ccc4cn3)ccn2)CC1 [Compound 12] , report its IC50.
8

###

test system: haematopoietic & lymphoid tumors (13 cell lines); assay: CellTiter-Glo Viability Assay, haematopoietic & lymphoid tumors; format: cell-based; details: Homo sapiens; JeKo-1 cell line; inhibition of cancer cell proliferation; read-out: Haematopoietic & Lymphoid tumors, EC50 (μM) JeKo-1
experimental endpoint: EC50 (µM)

Cc1ncc(C(=O)Nc2cc3nc(-c4cnc(C)n4C)ccc3cn2)s1: 0.125

a = CN1CCC(Oc2ccc(NC(=O)c3n[nH]cc3/C=C/c3cccnc3)cn2)CC1
b = Cc1cc2ncc(-c3ccc4cnc(NC(=O)c5ccnc(N6CCN(C)CC6)c5)cc4c3)cc2[nH]1
c = CN1CCCCN(C)c2nccc3[nH]c(nc23)-c2n[nH]c3ccc(cc23)-c2cncc(c2)C1
Put these in order: smallest EC50 first, largest last. In plain terms: list the labels in the order you were asked to.
c, b, a

###

test system: haematopoietic & lymphoid tumors (13 cell lines); assay: CellTiter-Glo Viability Assay, haematopoietic & lymphoid tumors; type: cell-based; settings: Homo sapiens; JeKo-1 cell line; inhibition of cancer cell proliferation; read-out: Haematopoietic & Lymphoid tumors, EC50 (μM) JeKo-1
experimental endpoint: EC50 (µM)

CN(C)C1CN(c2cc(C(=O)Nc3cc4cc(-c5cnn(C)c5)ccc4cn3)ccn2)C1: 0.347
CN1CCN(c2ccc(NC(=O)c3n[nH]c4ccc(-c5cncc(NC(=O)C6CC6)c5)cc34)cn2)CC1: 0.039
c1cncc(-c2ccc3[nH]nc(-c4cc5c(-c6cccnc6)cncc5[nH]4)c3c2)c1: 0.455
CN1CCCn2cc(nn2)-c2nccc3[nH]c(nc23)-c2n[nH]c3ccc(cc23)-c2cncc(c2)C1: 0.917
Cc1n[nH]c2ccc(-c3cncc(N[C@H]4CC[C@@H](N)CC4)n3)cc12: 0.14

I = O=C(Nc1cncc(-c2ccc3[nH]nc(-c4cc5cnccc5[nH]4)c3c2)c1)C1CCCCC1
II = CN1CCC(Sc2ccc3cnc(NC(=O)c4ccnc(SC5CCN(C)CC5)c4)cc3c2)CC1
III = COc1ccc(NC(=O)c2n[nH]c3ccc(-c4cncc(CN5CCCCC5)c4)cc23)cn1
IV = Cn1ncc(-c2ccc3cnc(NC(=O)C4CC5(C4)CN(CCF)C5)cc3c2)c1CN1CCCCC1
# rank by EC50, ascending (min first) Give the order by naming the labels one after another as requested.
I, III, II, IV

###

tested on: haematopoietic & lymphoid tumors (13 cell lines); experiment: CellTiter-Glo Viability Assay, haematopoietic & lymphoid tumors; type: cell-based; settings: Homo sapiens, DND41; DND-41 cell line; inhibition of cancer cell proliferation; read-out: Haematopoietic & Lymphoid tumors, EC50 (μM) DND-41
experimental endpoint: EC50 (µM)

Field: example entries. Status: answers known.
CN(C)C1CCN(c2cc(C(=O)Nc3ncc4ccc(-c5cn(C)nn5)cc4n3)ccn2)CC1: 2.11
CN1CCC2(CC1)CN(c1cc(C(=O)Nc3cc4cc(-c5cnn(C)c5CO)ccc4cn3)ccn1)C2: 0.547

a = CN1CCN(c2ccc(NC(=O)c3n[nH]c4ccc(-c5cncc(NC(=O)C6CC6)c5)cc34)cn2)CC1
b = c1cncc(-c2ccc3[nH]nc(-c4cc5c(-c6cccnc6)cncc5[nH]4)c3c2)c1
From the recorded data, which exceeds the other in EC50: a or b ? Which one? Tell me its label.
b

###

tested on: ZR-75-1; experiment: CellTiter-Glo Viability Assay, breast cancer; assay type: cell-based; settings: Homo sapiens, 96 h; ZR-75-1, breast cancer, four days; read-out: EC50
experimental endpoint: EC50 (nM)

CN1CC=C(c2cc(C(=O)Nc3cc4cc(-c5cncc(NC(C)(C)C)n5)cnc4cn3)ccn2)CC1 [Compound 86]: 4180
CN1CCC2(CC1)CN(c1cc(C(=O)Nc3cc4cc(-c5cnn(C)c5CO)ccc4cn3)ccn1)C2 [Compound 76]: 950
Cc1ncc(C(=O)Nc2cc3nc(-c4cnc(C)n4C)ccc3cn2)s1 [Compound 82]: 440
CN1CCN(c2cc(C(=O)Nc3cc4cc(-c5cnn(C)c5N)ccc4cn3)ccn2)CC1 [Compound 75]: 177
Cn1ncc(-c2ccc3cnc(NC(=O)C4CC5(C4)CN(CCF)C5)cc3c2)c1CN1CCCCC1 [Compound 77]: 826
CC(C)Nc1cncc(-c2ccc3cnc(NC(=O)c4cn(C5CCN(CCF)CC5)nn4)cc3c2)n1 [Compound 85]: 506
CN1CCC(Oc2ccc(C(=O)Nc3cc4cc(-c5cnn(C)c5)ccc4cn3)cc2)CC1 [Compound 68]: 1370
CS(=O)(=O)NCc1cc(F)cc(-c2nccc3[nH]c(-c4n[nH]c5ccc(-c6cncc(NC(=O)C7CCC7)c6)cc45)cc23)c1 [Compound 53]: 1280

1 = CN1CCC(Oc2ccc(NC(=O)c3n[nH]cc3/C=C/c3cccnc3)cn2)CC1 [Compound 93]
2 = O=C(Nc1cncc(-c2ccc3[nH]nc(-c4cc5cnccc5[nH]4)c3c2)c1)C1CCCCC1 [Compound 47]
So which one has the bigger EC50 here, 1 or 2 ? Which one? Tell me its label.
1
(1: 6790 nM, 2: 358 nM)

a = CN(C)C1CCN(c2cc(C(=O)Nc3ncc4ccc(-c5cn(C)nn5)cc4n3)ccn2)CC1 [Compound 80]
b = [2H]c1c([2H])c([2H])c(/C=C/C(=O)Nc2cc3cc(-c4cncn4C)ccc3cn2)c([2H])c1[2H] [Compound 81]
Consider entries a and b . Which has the numerically lower EC50? To answer, give the label that identifies your chosen option.
b

a = Cc1n[nH]c2ccc(-c3cncc(N[C@H]4CC[C@H](O)CC4)n3)cc12 [Compound 65]
b = CN1CCN(c2cc(C(=O)Nc3cc4cc(-c5cn(C)nn5)ccc4cn3)ccn2)CC1 [Compound 14]
Which value of EC50 is greater, the one for a or the one for b ? In your reply, give the label of the chosen option.
a
(a: 617 nM, b: 410 nM)
